- target.or.test.system: human muscarinic M1 receptor (Homo sapiens, UniProt P11229)
- Sequence (P11229 whole entry): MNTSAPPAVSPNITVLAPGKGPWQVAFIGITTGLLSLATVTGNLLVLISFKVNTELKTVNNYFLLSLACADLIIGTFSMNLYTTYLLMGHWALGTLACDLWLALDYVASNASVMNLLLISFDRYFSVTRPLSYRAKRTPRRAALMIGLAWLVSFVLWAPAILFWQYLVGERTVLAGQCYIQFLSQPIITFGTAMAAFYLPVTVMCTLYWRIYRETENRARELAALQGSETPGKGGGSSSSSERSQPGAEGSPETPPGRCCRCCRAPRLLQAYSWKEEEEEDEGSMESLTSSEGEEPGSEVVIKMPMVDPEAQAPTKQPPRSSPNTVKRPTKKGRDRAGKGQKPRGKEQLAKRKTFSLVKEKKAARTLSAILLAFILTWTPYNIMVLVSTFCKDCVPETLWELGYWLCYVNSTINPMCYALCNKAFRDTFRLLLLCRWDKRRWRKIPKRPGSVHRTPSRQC
- protocol: Alphascreen Surefire phospho-ERK1/2 functional assay, M1
- Format: cell-based
- measurement.setup: CHO cells stably expressing human M1; phospho-ERK1/2; read-out: pEC50 M1 (converted)
- Experimental: Functional assays were performed using the Alphascreen Surefire phospho-ERK1/2 assay (Crouch & Osmond, Comb. Chem. High Throughput Screen, 2008). […] Plates were incubated for 2 h with gentle agitation in the dark and then read on a PHERAstar plate reader. pEC50 and Emax figures were calculated from the resulting data for each receptor subtype.
recorded.endpoint: log10 EC50 (log10 of the value in µM)

>>> result_value("CCc1noc(C2CC3(CCN(C4CCC5(CC4)C(=O)Nc4ccccc45)C3)C2)n1 (single isomer, unassigned) [26-3 Isomer 1]")
-1.03
>>> result_value("CCOC(=O)NC1CCN(C2CCC3(CC2)C(=O)Nc2ccccc23)CC1 (single isomer, unassigned) [7-1 isomer 2]")
-0.31
>>> result_value("CCOC(=O)N1CCCN(C2CCC3(CC2)C(=O)Nc2cc(C)ccc23)CC1 (single isomer, unassigned) [4-6 isomer 2]")
-1.44
>>> result_value("CCOC(=O)N1CCCN(C2CCC(C#N)(c3cccc(F)c3)CC2)CC1 (mixture of isomers) [3-2 mixture of isomers]")
-1.60
>>> result_value("CCOC(=O)N[C@H]1CCN(C2CCC3(CC2)C(=O)Nc2cccc(C)c23)C1 (single isomer, unassigned) [2-6 isomer 1]")
-0.73
>>> result_value("COc1ccc2c(c1)C1(CCC(N3CCC4(CC(c5nc(C)no5)C4)C3)CC1)C(=O)N2 (single isomer, unassigned) [26-2 Isomer 1]")
-1.79
>>> result_value("CCOC(=O)N1CCCN(C2CCC(C#N)(c3ccc(Br)cn3)CC2)CC1 (single isomer, unassigned) [3-17 Isomer 1]")
-2.52
>>> result_value("C#CCOC(=O)N1CCCN(C2CCC(C#N)(c3ccc(OC)cn3)CC2)CC1 (single isomer, unassigned) [3-31 Isomer 1]")
-1.71
>>> result_value("CCOC(=O)N1CCCN(C2CCC3(CC2)C(=O)Nc2ccc(OC)cc23)CC1 (single isomer, unassigned) [4-12 isomer 1]")
-1.05
>>> result_value("CCOC(=O)N1CCCN(C2CCC(C#N)(c3cccc(C)c3)CC2)CC1 (mixture of isomers) [3-8 mixture of isomers]")
-1.45
>>> result_value("CCOC(=O)N1CCCN(C2CCC3(CC2)C(=O)Nc2cccc(C)c23)CC1 (single isomer, unassigned) [4-8 isomer 2]")
-0.69
>>> result_value("CCOC(=O)NCC1CCN(C2CCC3(CC2)C(=O)Nc2ccccc23)CC1 (single isomer, unassigned) [7-2 isomer 2]")
-0.41
>>> result_value("CCOC(=O)N[C@H]1CCN(C2CCC3(CC2)C(=O)Nc2ccc(F)cc23)C1 (single isomer, unassigned) [2-8 isomer 1]")
-1.03
>>> result_value("Cc1ccc2c(c1)C1(CCC(N3CCC4(CC(c5nc(C)no5)C4)C3)CC1)C(=O)N2 (single isomer, unassigned) [26-1 Isomer 2]")
-1.82
>>> result_value("CCOC(=O)N(C)[C@H]1CCN(C2CCC(C#N)(c3ccccc3)CC2)C1 (single isomer, unassigned) [1-20 Isomer 2]")
-0.83
>>> result_value("Cc1ccc(C2(C#N)CCC(N3CCC4(CC(c5nc(C)no5)C4)C3)CC2)nc1 (single isomer, unassigned) [21-5 Isomer 2]")
1.16
>>> result_value("CCOC(=O)N(C)[C@@H]1CCN(C2CCC(C#N)(c3ccccc3)CC2)C1 (single isomer, unassigned) [1-21 Isomer 2]")
-0.96
>>> result_value("Cc1noc([C@H]2CC[C@@H](NC3CCC(C#N)(c4ccccn4)CC3)C2)n1 (single isomer, unassigned) [19-1 Isomer 2]")
0.24
>>> result_value("CCOC(=O)N1CCCN(C2CCC3(CC2)C(=O)Nc2ccc(C)cc23)CC1 (single isomer, unassigned) [4-7 isomer 1]")
-1.35
>>> result_value("O=C1Nc2ccccc2C12CCC(N[C@@H]1CC[C@H](c3nc(C(F)(F)F)no3)C1)CC2 (single isomer, unassigned) [24-1 Isomer 1]")
-0.66
>>> result_value("CC#CCOC(=O)N1CCCN(C2CCC(C#N)(c3ccncc3)CC2)CC1 (single isomer, unassigned) [3-30 Isomer 1]")
-0.53
>>> result_value("Cc1noc(C2CC3(CCN(C4CCC(C#N)(c5ccccc5F)CC4)C3)C2)n1 (single isomer, unassigned) [21-2 Isomer 3]")
-1.14
>>> result_value("CCOC(=O)N1CCCN(C2CCC(C#N)(c3ccccn3)CC2)CC1 (mixture of isomers) [3-11 mixture of isomers]")
-1.14
>>> result_value("CCOC(=O)N1CCCN(C2CCC3(CC2)C(=O)Nc2cc(C#N)ccc23)CC1 (single isomer, unassigned) [4-13 isomer 2]")
-0.02
>>> result_value("CCOC(=O)N1CCCN(C2CCC3(CC2)C(=O)Nc2ccc(C#N)cc23)CC1 (single isomer, unassigned) [4-14 isomer 1]")
-0.01
